FYI, the data here is from ChEMBL document CHEMBL4118253.

As shown below, each of these molecules has a reported pEC50 value.
- Tested on: Human alphaherpesvirus 3
- test.protocol: Antiviral activity against thymidine kinase deficient Varicella-Zoster virus infected in HEL cells assessed as reduction in virus plaque formation
- Assay type: functional, organism-based
- cond: Human alphaherpesvirus 3, HEL
pEC50: −log10 of the molar value.

>  <molecule>
C/C(=C\CP(=O)(N[C@@H](C)C(=O)OC(C)C)Oc1cccc2c1CCCC2)Cn1ccc(=O)[nH]c1=O (stereo partly drawn)

>  <tested.on>
Human alphaherpesvirus 3

>  <qualifying.sign>
=

>  <pEC50>
4.15

$$$$
>  <molecule>
C/C(=C\CP(=O)(N[C@@H](C)C(=O)OCc1ccccc1)Oc1ccccc1)Cn1ccc(=O)[nH]c1=O (stereo partly drawn)

>  <tested.on>
Human alphaherpesvirus 3

>  <qualifying.sign>
<

>  <pEC50>
4.00

$$$$
>  <molecule>
C/C(=C\CP(=O)(N[C@@H](C)C(=O)OCc1ccccc1)Oc1cccc2c1CCCC2)Cn1ccc(=O)[nH]c1=O (stereo partly drawn)

>  <tested.on>
Human alphaherpesvirus 3

>  <qualifying.sign>
=

>  <pEC50>
4.28

$$$$
>  <molecule>
C/C(=C\CP(=O)(N[C@@H](C)C(=O)OCc1ccccc1)Oc1cccc2ccccc12)Cn1ccc(=O)[nH]c1=O (stereo partly drawn)

>  <tested.on>
Human alphaherpesvirus 3

>  <qualifying.sign>
=

>  <pEC50>
4.23

$$$$
>  <molecule>
C/C(=C\CP(=O)(N[C@@H](C)C(=O)OC(C)C)Oc1cccc2ccccc12)Cn1ccc(=O)[nH]c1=O (stereo partly drawn)

>  <tested.on>
Human alphaherpesvirus 3

>  <qualifying.sign>
<

>  <pEC50>
4.00

$$$$
>  <molecule>
C/C(=C/CP(=O)(N[C@@H](C)C(=O)OC(C)C)Oc1cccc2c1CCCC2)Cn1cc(C)c(=O)[nH]c1=O (stereo partly drawn)

>  <tested.on>
Human alphaherpesvirus 3

>  <qualifying.sign>
<

>  <pEC50>
4.70

$$$$
>  <molecule>
C/C(=C\CP(=O)(N[C@@H](C)C(=O)OC(C)C)Oc1ccccc1)Cn1cc(C)c(=O)[nH]c1=O (stereo partly drawn)

>  <tested.on>
Human alphaherpesvirus 3

>  <qualifying.sign>
<

>  <pEC50>
4.00

$$$$
>  <molecule>
C/C(=C/CP(=O)(N[C@@H](C)C(=O)OCc1ccccc1)Oc1cccc2c1CCCC2)Cn1cc(C)c(=O)[nH]c1=O (stereo partly drawn)

>  <tested.on>
Human alphaherpesvirus 3

>  <qualifying.sign>
=

>  <pEC50>
4.19

$$$$

* * *

As shown below, each of these compounds has a reported EC50 value.
- System: Human alphaherpesvirus 3
- test.protocol: Antiviral activity against thymidine kinase deficient Varicella-Zoster virus infected in HEL cells assessed as reduction in virus plaque formation
- Format: functional, organism-based
- cond: Human alphaherpesvirus 3, HEL

>  <compound>
C/C(=C/CP(=O)(N[C@@H](C)C(=O)OC(C)C)Oc1cccc2ccccc12)Cn1cc(C)c(=O)[nH]c1=O (stereo not given in full)

>  <reading.unit>
µM

>  <EC50>
41.6

$$$$
>  <compound>
O=c1[nH]c(=O)n([C@H]2C[C@H](O)[C@@H](CO)O2)cc1/C=C/Br

>  <reading.unit>
µM

>  <EC50>
0.57

$$$$
>  <compound>
C/C(=C\CP(=O)(N[C@@H](C)C(=O)OCc1ccccc1)Oc1ccccc1)Cn1cc(C)c(=O)[nH]c1=O (stereo not given in full)

>  <reading.unit>
µM

>  <EC50>
46.7

$$$$
>  <compound>
C/C(=C\CP(=O)(N[C@@H](C)C(=O)OC(C)C)Oc1cccc2c1CCCC2)Cn1cc(C)c(=O)[nH]c1=O (stereo not given in full)

>  <reading.unit>
µM

>  <EC50>
53.5

$$$$
>  <compound>
C/C(=C/CP(=O)(N[C@@H](C)C(=O)OC(C)C)Oc1cccc2c1CCCC2)Cn1ccc(=O)[nH]c1=O (stereo not given in full)

>  <reading.unit>
µM

>  <EC50>
100

$$$$
